Data credit: ChEMBL document CHEMBL1156816

Tested on: HUVEC
Experiment: Cytotoxicity against HUVEC assessed as change in cell morphology at 1 uM after 16 hrs by flow cytometry using Annexin V/propidium staining
Assay type: cell-based
Settings: human
measured.quantity: Activity

Some compounds with recorded Activity:
NC(N)=NCCC[C@H]1NC(=O)CC(=O)N[C@H](CC(=O)O)C(=O)N[C@@H](Cc2ccccc2)CNC1=O: Non-toxic
N=C(N)NCCC[C@@H]1NC(=O)CC(=O)N[C@H](CC(=O)O)C(=O)N[C@@H](Cc2ccccc2)CNC1=O: Non-toxic
NC(N)=NCCC[C@@H]1NC(=O)CC(=O)N[C@@H](CC(=O)O)C(=O)N[C@H](Cc2ccccc2)CNC1=O: Non-toxic
N=C(N)NCCC[C@@H]1NC(=O)CC(=O)N[C@@H](CC(=O)O)C(=O)N[C@@H](Cc2ccccc2)CNC1=O: Non-toxic
N=C(N)NCCC[C@@H]1NC(=O)CC(=O)N[C@H](CC(=O)O)C(=O)N[C@H](Cc2ccccc2)CNC1=O: Non-toxic
N=C(N)NCCC[C@H]1NC(=O)CC(=O)N[C@@H](CC(=O)O)C(=O)N[C@@H](Cc2ccccc2)CNC1=O: Non-toxic

### Prompt Data request, read-out Activity, for "NC(N)=NCCC[C@H]1NC(=O)CC(=O)N[C@@H](CC(=O)O)C(=O)N[C@H](Cc2ccccc2)CNC1=O"
### Response Non-toxic

### Prompt Same lookup for "NC(N)=NCCC[C@H]1NC(=O)CC(=O)N[C@H](CC(=O)O)C(=O)N[C@H](Cc2ccccc2)CNC1=O" , please.
### Response Non-toxic

====

Kindly supply the reported IC50 values for the records listed here.
Target: Integrin alpha-V/beta-3 (Homo sapiens, UniProt P05106+P06756)
Sequence (P05106 27-788 limits assumed): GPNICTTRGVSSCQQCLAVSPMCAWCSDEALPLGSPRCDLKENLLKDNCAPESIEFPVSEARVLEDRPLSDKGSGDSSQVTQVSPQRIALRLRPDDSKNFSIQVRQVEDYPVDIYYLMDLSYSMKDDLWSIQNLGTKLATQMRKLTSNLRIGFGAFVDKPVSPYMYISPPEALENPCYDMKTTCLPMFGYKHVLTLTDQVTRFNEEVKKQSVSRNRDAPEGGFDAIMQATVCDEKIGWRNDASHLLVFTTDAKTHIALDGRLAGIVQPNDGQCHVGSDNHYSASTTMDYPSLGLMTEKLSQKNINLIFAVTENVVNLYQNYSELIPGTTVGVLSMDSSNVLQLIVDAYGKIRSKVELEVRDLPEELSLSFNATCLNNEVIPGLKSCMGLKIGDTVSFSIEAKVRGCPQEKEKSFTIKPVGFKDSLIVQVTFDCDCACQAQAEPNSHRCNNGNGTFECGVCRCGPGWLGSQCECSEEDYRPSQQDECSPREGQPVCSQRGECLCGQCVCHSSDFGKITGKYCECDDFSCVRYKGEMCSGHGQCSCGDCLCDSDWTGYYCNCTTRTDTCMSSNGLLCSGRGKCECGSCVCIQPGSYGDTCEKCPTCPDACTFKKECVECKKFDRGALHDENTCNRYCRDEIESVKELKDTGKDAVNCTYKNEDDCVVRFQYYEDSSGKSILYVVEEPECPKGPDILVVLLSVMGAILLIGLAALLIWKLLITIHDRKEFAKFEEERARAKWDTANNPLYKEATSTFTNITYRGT
Sequence (P06756 31-889 limits assumed): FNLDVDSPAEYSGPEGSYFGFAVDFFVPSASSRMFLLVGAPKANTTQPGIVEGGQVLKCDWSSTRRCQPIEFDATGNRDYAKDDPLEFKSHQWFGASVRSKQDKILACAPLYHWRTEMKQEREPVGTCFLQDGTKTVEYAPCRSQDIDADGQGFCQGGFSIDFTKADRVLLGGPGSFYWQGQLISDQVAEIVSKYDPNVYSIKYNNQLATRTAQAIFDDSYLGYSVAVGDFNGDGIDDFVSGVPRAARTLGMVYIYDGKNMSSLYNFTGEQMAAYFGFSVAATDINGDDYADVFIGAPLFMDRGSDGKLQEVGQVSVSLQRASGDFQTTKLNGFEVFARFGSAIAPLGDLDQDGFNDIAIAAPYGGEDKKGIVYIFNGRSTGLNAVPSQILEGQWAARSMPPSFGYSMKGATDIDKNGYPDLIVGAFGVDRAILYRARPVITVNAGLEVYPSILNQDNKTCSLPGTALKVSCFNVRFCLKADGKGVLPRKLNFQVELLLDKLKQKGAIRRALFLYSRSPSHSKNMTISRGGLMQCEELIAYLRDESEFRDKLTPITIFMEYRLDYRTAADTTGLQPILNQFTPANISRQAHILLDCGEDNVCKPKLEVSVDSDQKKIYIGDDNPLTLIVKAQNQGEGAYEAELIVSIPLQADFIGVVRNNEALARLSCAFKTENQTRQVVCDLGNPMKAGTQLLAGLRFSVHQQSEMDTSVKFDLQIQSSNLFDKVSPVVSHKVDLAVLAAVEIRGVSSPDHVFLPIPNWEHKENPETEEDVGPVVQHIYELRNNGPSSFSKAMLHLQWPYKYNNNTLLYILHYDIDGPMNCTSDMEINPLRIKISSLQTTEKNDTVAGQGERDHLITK
Sequence (P06756 891-1048 limits assumed): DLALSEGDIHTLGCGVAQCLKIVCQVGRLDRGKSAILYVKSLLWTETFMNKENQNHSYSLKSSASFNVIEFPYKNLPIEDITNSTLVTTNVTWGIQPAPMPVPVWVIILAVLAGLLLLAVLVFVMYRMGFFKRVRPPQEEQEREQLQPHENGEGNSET
Experiment: Inhibition of alphavbeta3 integrin-mediated cell adhesion in human SK-MEL-24 cells on fibronectin coated plate after 30 mins
Type: cell-based
Report only the number, with the unit µM understood.

### Prompt Data request, read-out IC50, for "N=C(N)NCCC[C@H]1NC(=O)CC(=O)N[C@@H](CC(=O)O)C(=O)N[C@@H](Cc2ccccc2)CNC1=O"
### Response 2.3

### Prompt Same lookup for "N=C(N)NCCC[C@@H]1NC(=O)CC(=O)N[C@@H](CC(=O)O)C(=O)N[C@@H](Cc2ccccc2)CNC1=O" , please.
### Response 11

====

System: HUVEC
Test: Cytotoxicity against HUVEC assessed as increase in level of necrotic cells at 1 uM after 16 hrs by flow cytometry using Annexin V/propidium staining
Format: cell-based
Conditions: human
measured.quantity: Activity

N=C(N)NCCC[C@@H]1NC(=O)CC(=O)N[C@H](CC(=O)O)C(=O)N[C@@H](Cc2ccccc2)CNC1=O: Non-toxic
N=C(N)NCCC[C@@H]1NC(=O)CC(=O)N[C@@H](CC(=O)O)C(=O)N[C@@H](Cc2ccccc2)CNC1=O: Non-toxic
NC(N)=NCCC[C@H]1NC(=O)CC(=O)N[C@@H](CC(=O)O)C(=O)N[C@H](Cc2ccccc2)CNC1=O: Non-toxic
NC(N)=NCCC[C@H]1NC(=O)CC(=O)N[C@H](CC(=O)O)C(=O)N[C@@H](Cc2ccccc2)CNC1=O: Non-toxic

====

Biological target: Integrin alpha-V/beta-3 (Homo sapiens, UniProt P05106+P06756)
Experiment: Inhibition of alphavbeta3 integrin-mediated cell adhesion in HUVEC on vitronectin coated plate after 30 mins
Non-standard residues stand in square brackets, D forms with d. Residues, ends and D or L forms follow the SMILES beside them.
Kindly supply the reported IC50 values for the records listed here.

### Prompt Data request, read-out IC50, for CC(C)[C@@H]1NC(=O)[C@@H](Cc2ccccc2)NC(=O)[C@H](CC(=O)O)NC(=O)[C@H](C)NC(=O)[C@H](CCCN=C(N)N)NC1=O (cyclo(AD[dF]VR))
### Response > 100 µM

### Prompt Same lookup for "NC(N)=NCCC[C@@H]1NC(=O)CC(=O)N[C@@H](CC(=O)O)C(=O)N[C@H](Cc2ccccc2)CNC1=O" , please.
### Response 0.24 µM

### Prompt Same lookup for "NC(N)=NCCC[C@H]1NC(=O)CC(=O)N[C@@H](CC(=O)O)C(=O)N[C@H](Cc2ccccc2)CNC1=O" , please.
### Response > 100 µM

### Prompt Same lookup for "NC(N)=NCCC[C@H]1NC(=O)CC(=O)N[C@H](CC(=O)O)C(=O)N[C@H](Cc2ccccc2)CNC1=O" , please.
### Response > 100 µM

### Prompt Same lookup for "NC(N)=NCCC[C@H]1NC(=O)CC(=O)N[C@H](CC(=O)O)C(=O)N[C@@H](Cc2ccccc2)CNC1=O" , please.
### Response > 100 µM

====

Kindly supply the reported pIC50 values for the records listed here.
Biological target: Integrin alpha-5/beta-1 (Homo sapiens, UniProt P05556+P08648)
Sequence (P05556 21-798 limits assumed): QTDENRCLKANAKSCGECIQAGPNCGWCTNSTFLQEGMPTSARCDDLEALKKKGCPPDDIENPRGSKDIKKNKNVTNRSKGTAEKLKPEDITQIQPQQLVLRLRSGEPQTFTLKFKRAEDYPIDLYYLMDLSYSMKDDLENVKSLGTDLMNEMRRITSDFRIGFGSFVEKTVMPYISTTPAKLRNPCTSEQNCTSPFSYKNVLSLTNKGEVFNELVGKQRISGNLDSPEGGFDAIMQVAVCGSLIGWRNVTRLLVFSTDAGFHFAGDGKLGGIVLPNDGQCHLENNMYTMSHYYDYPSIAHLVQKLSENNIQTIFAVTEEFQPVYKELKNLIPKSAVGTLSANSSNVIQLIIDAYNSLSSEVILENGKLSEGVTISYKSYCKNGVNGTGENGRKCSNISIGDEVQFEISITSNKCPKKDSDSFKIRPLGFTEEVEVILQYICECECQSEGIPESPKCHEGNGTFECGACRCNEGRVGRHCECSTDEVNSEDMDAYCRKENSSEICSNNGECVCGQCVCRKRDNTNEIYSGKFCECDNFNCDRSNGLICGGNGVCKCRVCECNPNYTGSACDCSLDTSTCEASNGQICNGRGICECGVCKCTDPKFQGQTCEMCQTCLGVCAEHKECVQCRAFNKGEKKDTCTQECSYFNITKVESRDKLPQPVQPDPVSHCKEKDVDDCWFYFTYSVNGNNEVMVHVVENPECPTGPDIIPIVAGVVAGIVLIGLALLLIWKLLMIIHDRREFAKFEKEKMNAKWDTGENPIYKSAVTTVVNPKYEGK
Sequence (P08648 42-894 limits assumed): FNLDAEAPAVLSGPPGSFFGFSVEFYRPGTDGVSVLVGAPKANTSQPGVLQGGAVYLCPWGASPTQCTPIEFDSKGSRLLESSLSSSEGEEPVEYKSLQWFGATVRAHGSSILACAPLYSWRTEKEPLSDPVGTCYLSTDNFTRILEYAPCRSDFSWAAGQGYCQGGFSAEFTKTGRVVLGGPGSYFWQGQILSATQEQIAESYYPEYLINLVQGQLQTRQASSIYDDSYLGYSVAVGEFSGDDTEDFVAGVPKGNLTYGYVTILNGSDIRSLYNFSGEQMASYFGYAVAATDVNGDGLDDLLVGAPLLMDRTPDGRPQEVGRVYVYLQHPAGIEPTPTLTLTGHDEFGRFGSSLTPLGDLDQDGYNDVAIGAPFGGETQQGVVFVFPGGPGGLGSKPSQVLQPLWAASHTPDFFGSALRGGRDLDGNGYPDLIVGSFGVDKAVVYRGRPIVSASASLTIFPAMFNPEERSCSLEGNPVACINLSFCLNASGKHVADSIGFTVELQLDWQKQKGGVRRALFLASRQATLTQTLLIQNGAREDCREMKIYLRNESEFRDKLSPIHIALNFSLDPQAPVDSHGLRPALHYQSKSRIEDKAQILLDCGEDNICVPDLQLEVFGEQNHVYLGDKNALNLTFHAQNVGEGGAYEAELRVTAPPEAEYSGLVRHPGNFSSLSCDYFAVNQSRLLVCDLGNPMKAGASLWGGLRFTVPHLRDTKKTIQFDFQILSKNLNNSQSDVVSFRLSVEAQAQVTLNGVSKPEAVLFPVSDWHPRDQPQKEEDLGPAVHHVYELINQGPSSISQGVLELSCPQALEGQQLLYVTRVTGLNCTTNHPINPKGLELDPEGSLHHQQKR
Sequence (P08648 895-1049 limits assumed): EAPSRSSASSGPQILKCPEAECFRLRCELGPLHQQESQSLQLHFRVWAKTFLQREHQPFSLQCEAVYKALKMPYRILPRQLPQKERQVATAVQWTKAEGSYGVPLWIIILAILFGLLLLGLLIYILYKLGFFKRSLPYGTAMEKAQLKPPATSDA
Assay: Inhibition of alpha5beta1 integrin-mediated cell adhesion in human K562 cells on fibronectin coated plate after 30 mins
Worth noting: pIC50 values are minus log10 of concentrations stated in mol/L.

### Prompt Data request, read-out pIC50, for "N=C(N)NCCC[C@@H]1NC(=O)CC(=O)N[C@@H](CC(=O)O)C(=O)N[C@@H](Cc2ccccc2)CNC1=O"
### Response 6.28

### Prompt Same lookup for "NC(N)=NCCC[C@@H]1NC(=O)CC(=O)N[C@@H](CC(=O)O)C(=O)N[C@H](Cc2ccccc2)CNC1=O" , please.
### Response 7.62

### Prompt Same lookup for "N=C(N)NCCC[C@@H]1NC(=O)CC(=O)N[C@H](CC(=O)O)C(=O)N[C@H](Cc2ccccc2)CNC1=O" , please.
### Response 5.89

### Prompt Same lookup for "N=C(N)NCCC[C@H]1NC(=O)CC(=O)N[C@@H](CC(=O)O)C(=O)N[C@@H](Cc2ccccc2)CNC1=O" , please.
### Response 5.33

====

Biological target: Integrin alpha-V/beta-3 (Homo sapiens, UniProt P05106+P06756)
Test: Inhibition of alphavbeta3 integrin-mediated cell adhesion in human SK-MEL-24 cells on fibronectin coated plate after 30 mins
Type: cell-based
Non-standard residues stand in square brackets, D forms with d. Residues, ends and D or L forms follow the SMILES beside them.
measured.quantity: IC50

### Prompt Data request, read-out IC50, for "NC(N)=NCCC[C@H]1NC(=O)CC(=O)N[C@@H](CC(=O)O)C(=O)N[C@H](Cc2ccccc2)CNC1=O"
### Response > 100000 nM

### Prompt Same lookup for "NC(N)=NCCC[C@H]1NC(=O)CC(=O)N[C@H](CC(=O)O)C(=O)N[C@H](Cc2ccccc2)CNC1=O" , please.
### Response > 100000 nM

### Prompt Same lookup for "NC(N)=NCCC[C@@H]1NC(=O)CC(=O)N[C@@H](CC(=O)O)C(=O)N[C@H](Cc2ccccc2)CNC1=O" , please.
### Response 180 nM

### Prompt Same lookup for "N=C(N)NCCC[C@@H]1NC(=O)CC(=O)N[C@H](CC(=O)O)C(=O)N[C@H](Cc2ccccc2)CNC1=O" , please.
### Response 2100 nM

### Prompt Same lookup for CC(C)[C@@H]1NC(=O)[C@@H](Cc2ccccc2)NC(=O)[C@H](CC(=O)O)NC(=O)[C@H](C)NC(=O)[C@H](CCCN=C(N)N)NC1=O (cyclo(AD[dF]VR)) , please.
### Response > 100000 nM

====

Test system: HUVEC
Assay: Cytotoxicity against HUVEC assessed as change in cell morphology at 10 uM after 16 hrs by flow cytometry using Annexin V/propidium staining
Assay type: cell-based
Details: human
measured.quantity: Activity

Some compounds with recorded Activity:
N=C(N)NCCC[C@H]1NC(=O)CC(=O)N[C@@H](CC(=O)O)C(=O)N[C@@H](Cc2ccccc2)CNC1=O: Non-toxic
N=C(N)NCCC[C@@H]1NC(=O)CC(=O)N[C@H](CC(=O)O)C(=O)N[C@H](Cc2ccccc2)CNC1=O: Non-toxic
NC(N)=NCCC[C@H]1NC(=O)CC(=O)N[C@H](CC(=O)O)C(=O)N[C@@H](Cc2ccccc2)CNC1=O: Non-toxic
NC(N)=NCCC[C@@H]1NC(=O)CC(=O)N[C@@H](CC(=O)O)C(=O)N[C@H](Cc2ccccc2)CNC1=O: Non-toxic
NC(N)=NCCC[C@H]1NC(=O)CC(=O)N[C@@H](CC(=O)O)C(=O)N[C@H](Cc2ccccc2)CNC1=O: Non-toxic
N=C(N)NCCC[C@@H]1NC(=O)CC(=O)N[C@H](CC(=O)O)C(=O)N[C@@H](Cc2ccccc2)CNC1=O: Non-toxic

### Prompt Data request, read-out Activity, for "NC(N)=NCCC[C@H]1NC(=O)CC(=O)N[C@H](CC(=O)O)C(=O)N[C@H](Cc2ccccc2)CNC1=O"
### Response Non-toxic

### Prompt Same lookup for "N=C(N)NCCC[C@@H]1NC(=O)CC(=O)N[C@@H](CC(=O)O)C(=O)N[C@@H](Cc2ccccc2)CNC1=O" , please.
### Response Non-toxic
